Target: α-glucosidase from yeast
Experiment: α-Glucosidase inhibition assay
Settings: substrate maltose 0.5 mM, pH 6.8, 37 °C; mean ± SD of three independent experiments; read-out: IC50 against α-glucosidase from yeast
Description: α-Glucosidase activity was assayed by the method reported, with minor modifications. […] The reaction mixture contained 150 μL of enzyme solution, 150 μL of inhibitor, and 150 μL of substrate (maltose). The substrate and α-glucosidase (Baker’s yeast) were purchased from Sigma-Aldrich Chemical (St. Louis, MO, USA). […] The absorption at 505 nm was measured immediately and taken as the relative rate for the hydrolysis of the substrate. […]
recorded.metric: IC50 (µM)

// below: answered molecules
Note to self: IC50 recorded for C[C@]1(O)C[C@@H]2[C@@H](O1)[C@H](O)[C@H](O)CN2Cc1ccc(O)c(Br)c1 was 5.5

Recorded result, C[C@]1(O)C[C@@H]2[C@@H](O1)[C@H](O)[C@H](O)CN2Cc1ccc(O)cc1 , IC50: 10

What the record says about C[C@]1(O)C[C@@H]2[C@H](O1)[C@@H](O)[C@@H](O)CN2Cc1ccc(O)c(Cl)c1 : IC50 is 0.5

The molecule listed as C[C@H]1O[C@H](O[C@H]2[C@H](O)[C@@H](O)[C@@H](O[C@H]3[C@H](O)[C@@H](O)C(O)O[C@@H]3CO)O[C@@H]2CO)[C@H](O)[C@@H](O)[C@@H]1N[C@H]1C=C(CO)[C@@H](O)[C@H](O)[C@H]1O (stereo partly drawn) [Acarbose, reference compound] has a reported IC50 of 2

Looking up C[C@]1(O)C[C@@H]2[C@@H](O1)[C@H](O)[C@H](O)CN2Cc1c(Cl)cc(O)cc1Cl , I see its IC50 listed as 0.91

a: C[C@]1(O)C[C@@H]2[C@H](O1)[C@@H](O)[C@@H](O)CN2Cc1c(Cl)cc(O)cc1Cl
b: C[C@]1(O)C[C@@H]2[C@H](O1)[C@@H](O)[C@@H](O)CN2Cc1ccc(O)cc1
c: C[C@]1(O)C[C@@H]2[C@@H](O1)[C@H](O)[C@H](O)CN2Cc1ccccc1Cl
d: C[C@]1(O)C[C@@H]2[C@@H](O1)[C@H](O)[C@H](O)CN2Cc1cc(Br)c(O)c(Br)c1
Exercise: # desc sort on IC50 across 4 molecules Answer format: the labels, in the requested order.
Solution: c, b, d, a
(c: 13 µM, b: 8.3 µM, d: 1.9 µM, a: 0.07 µM)

I: CCOc1cc(CN2C[C@@H](O)[C@@H](O)[C@@H]3O[C@@](C)(O)C[C@H]32)ccc1O
II: C[C@]1(O)C[C@@H]2[C@H](O1)[C@@H](O)[C@@H](O)CN2Cc1ccc(O)cc1Cl
Exercise: Which numeric IC50 is bigger, that of I or that of II ? Your answer should be the label attached to the chosen record.
Solution: I
(I: 9 µM, II: 1.8 µM)
